Origin of measurements: patent US20260315611A1

- Test system: L6
- assaySummary: in vitro killing activity
- Format: cell-based, Rat
- protocolConditions: 120 h incubation
Kindly supply the reported IC50 values for the records listed here.
Answers are plain numbers, in nM.

compound: CCc1c2c(nc3ccc(O)cc13)-c1cc3c(c(=O)n1C2)COC(=O)[C@]3(O)CC [SN38, reference compound]
IC50 (nM): 20.8

Let us move to another entry and its IC50.
Ask: Requested field: IC50. Item: CC[C@@]1(O)C(=O)OCc2c1cc1n(c2=O)Cc2c-1nc1cc(F)c(C)c3c1c2[C@@H](NC(=O)CO)CC3 [Dxd, reference compound]
Reply: 13.8

====

- System: HuH-7
- assaySummary: in vitro killing activity
- Assay type: cell-based, Human
- protocolConditions: 120 h incubation
What IC50 was measured for each of the following?
Answer with the figure and its unit, nothing else.

compound: CCc1c2c(nc3ccc(O)cc13)-c1cc3c(c(=O)n1C2)COC(=O)[C@]3(O)CC [SN38, reference compound]
experimentalTarget: HuH-7
IC50: 2.41 nM

Ask: Value lookup for IC50; key = CC[C@@]1(O)C(=O)OCc2c1cc1n(c2=O)Cc2c-1nc1cc(F)c(C)c3c1c2[C@@H](NC(=O)CO)CC3 [Dxd, reference compound]
Reply: 1.39 nM

====

- System: DCOL1 (S+L−)
- assaySummary: in vitro killing activity
- Format: cell-based, Dog
- protocolConditions: Canis lupus familiaris; 120 time of incubation
observedProperty: pIC50
Give bare numbers, as −log10 of the molar value.

// for each compound in input: emit pIC50
1. CC[C@@]1(O)C(=O)OCc2c1cc1n(c2=O)Cc2c-1nc1ccc(N)c3c1c2CCO3
2. CC[C@@]1(O)C(=O)OCc2c1cc1n(c2=O)Cc2c-1nc1ccc(N)c3c1c2CCS3

Reply:
1. 8.64
2. 8.88

====

- Test system: MP-0094-3
- assaySummary: in vitro killing activity
- Type: cell-based, Dog
- protocolConditions: 120 time of incubation
- Procedure: Different concentrations of compounds CPT-1, CPT-2, CPT-3, CPT-4, Dxd (MedChem Express, Cat #: HY-13631D) and SN38 (MedChem Express, Cat #: HY-13704) were used to treat different human tumor cell lines, mice tumor cell lines, rat tumor cell lines or dog tumor cell lines cultured in a cell culture plate, respectively. And the killing activity was detected after 72 h-120 h incubation by IncuCyte (Sartorius AG, IncuCyte® S3) or MicroplateReader.
observedProperty: IC50 (nM)
Give bare numbers, in nM.

Ask: Observed IC50 on MP-0094-3 for CC[C@@]1(O)C(=O)OCc2c1cc1n(c2=O)Cc2c-1nc1cc(F)c(C)c3c1c2[C@@H](NC(=O)CO)CC3 [Dxd, reference compound] , please.
Reply: 22

====

- Test system: MP-1044-1
- assaySummary: in vitro killing activity
- Type: cell-based, Dog
- protocolConditions: 72 time of incubation
observedProperty: pIC50
One number for each entry, as −log10 of the molar value.

Ask: So what pIC50 did CC[C@@]1(O)C(=O)OCc2c1cc1n(c2=O)Cc2c-1nc1cc(F)c(C)c3c1c2[C@@H](NC(=O)CO)CC3 [Dxd, reference compound] get with MP-1044-1?
Reply: 7.38

====

What pIC50 was measured for each of the following?
- Test system: L6
- assaySummary: in vitro killing activity
- Assay type: cell-based, Rat
- protocolConditions: Rattus norvegicus, L6; 120 h incubation
Numbers only, as −log10 of the molar value.

smilesString: CC[C@@]1(O)C(=O)OCc2c1cc1n(c2=O)Cc2c-1nc1ccc(N)c3c1c2CCO3
pIC50: 8.41

Ask: Can you look up the measured pIC50 of CC[C@@]1(O)C(=O)OCc2c1cc1n(c2=O)Cc2c-1nc1ccc(N)c3c1c2CCS3 for me?
Reply: 8.43
